Reference source: patent US20240043390A1

Assay: Protein binding (fraction unbound) in blood and brain
Format: in vitro ADME
Settings: blood
measured endpoint: fraction unbound
Please reply with the number alone, leaving off any unit.

If you can, please state the reported fraction unbound value of COc1cc2ncnc(Nc3cccc(Cl)c3F)c2cc1OC(=O)N1CCN(C)C[C@H]1C [AZD3759] . 0.0593

====

Assay: Protein binding (fraction unbound) in blood and brain
Type: in vitro ADME
Source text: Fu refers to “fraction unbound”.
measured endpoint: fraction unbound

If you can, please state the reported fraction unbound value of COc1cc2ncnc(Nc3cccc(Cl)c3F)c2cc1OC(=O)N1CCN(C)C[C@H]1C . 0.0277

====

Assay: Protein binding (fraction unbound) in blood and brain
Type: in vitro ADME
Conditions: brain (second line of each compound); read-out: Fu (brain)
measured endpoint: fraction unbound

If you can, please state the reported fraction unbound value of Fc1c(Cl)cccc1Nc1ncnc2cc3c(cc12)OCCO3 [JGK010] . 0.0056
